// provenance: PubChem BioAssay (EPA / NIEHS)

Read-out: CYP2C8 (gene 1558)
Run Description: LTEA_HepaRG_CYP2C8: Life Technologies and Expression Analysis (LTEA) Assay for CYP2C8 using HepaRG (AID 2283483)
Measurement Conditions: mRNA level, 48 h; actives raise or lower the signal
The source made the active and inactive calls. Rule for the calls: active = hit-call score of the fitted dose curve at least 0.9, where 1 is the maximum; inactive = score below 0.9.
Possible outcomes: active, inactive

compound=CCC(=C(c1ccc(O)cc1)c1ccc(OCCN(C)C)cc1)c1ccccc1 assigned_category=active
compound="CCC(C)(C)C1CCC(O)CC1 (stereo unspecified)" assigned_category=inactive
compound="OC1CCC(C2CCCCC2)CC1 (stereo unspecified)" assigned_category=inactive
compound=CC(C)(C)c1ccc(O)c(C(C)(C)C)c1 assigned_category=inactive
compound=c1ccc2c(c1)ccc1ccccc12 assigned_category=active
compound=OC1CCCCC1 assigned_category=inactive
compound=Cc1cc(C)c(O)c(C)c1 assigned_category=active
compound="CCc1ccc(CCOc2ccc(CC3SC(=O)NC3=O)cc2)nc1 (stereo unspecified)" assigned_category=active
compound=Cc1cc(CCN2CCN(c3nsc4ccccc34)CC2)cc2c1NC(=O)CC2(C)C assigned_category=active
compound=OCCC(F)(F)C(F)(F)C(F)(F)C(F)(F)C(F)(F)C(F)(F)C(F)(F)C(F)(F)F assigned_category=inactive
compound=O=c1c(-c2ccc(O)cc2)coc2cc(O)ccc12 assigned_category=inactive
compound=CCCCOCCO assigned_category=inactive
compound=CCOC(=O)CC(O)(CC(=O)OCC)C(=O)OCC assigned_category=inactive
compound=ClC1=C(Cl)C(Cl)(Cl)C(Cl)=C1Cl assigned_category=inactive
compound=O=C(OCCOCCOC(=O)c1ccccc1)c1ccccc1 assigned_category=inactive
compound="CCc1nn(C2CCCCC2)c2cc(C3(C#N)CCC(C(=O)O)CC3)ccc12 (stereo unspecified)" assigned_category=active
compound=CC[C@H](C)[C@@H](C(=O)O)n1sc2ccccc2c1=O assigned_category=inactive
compound=O=C(O)Cc1cc(I)c(Oc2cc(I)c(O)c(I)c2)c(I)c1 assigned_category=active
compound=C[C@@H]1C[C@H]2[C@@H]3CCC4=CC(=O)C=C[C@]4(C)[C@@]3(F)[C@@H](O)C[C@]2(C)[C@@]1(O)C(=O)COP(=O)(O)O assigned_category=inactive
compound=CN1CCC[C@H]1c1cccnc1 assigned_category=inactive
compound=O=[N+]([O-])c1ccc(O)cc1 assigned_category=inactive
compound="CCCCC(CC)COC(=O)CCCCC(=O)OCc1ccccc1 (stereo unspecified)" assigned_category=inactive
compound=COC(=O)CCCCC(=O)OC assigned_category=inactive
compound=C#C[C@]1(O)CC[C@H]2[C@@H]3CCC4=CC(=O)CC[C@@H]4[C@H]3CC[C@@]21C assigned_category=active
compound=Oc1cccc(O)c1 assigned_category=inactive
compound=CC(=O)CC(C)(C)O assigned_category=inactive
